B1: HDV Ribozyme (parent)
chain: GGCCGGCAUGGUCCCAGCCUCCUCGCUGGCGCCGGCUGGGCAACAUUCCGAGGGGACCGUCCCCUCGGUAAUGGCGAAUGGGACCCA

Variants of: B1
Assay: self-cleavage, relative activity (ratio to wild type); higher = more cleavage; co-transcriptional
The entries below are paired with their reported self-cleavage.
I'd appreciate a reply containing only the number, no unit.

Study these solved cases before continuing.
seq_text=GGCCGGCAUGGUCCCAGCCUCCUCGCUGGCGCCGGCUGGGCAACAUUCCGAGAGGACCGUCCCCGCGGUAAUGGCGAAUGGGACCCA quantitative_result=0.708
seq_text=GGCCGGCAUGGUCCCAGCGUCCUCGCUGGCGCCGACUGGGCAACAUUCCGAGGGGACCGUCCCCUCGGUAAUGGCGAAUGGGACCCA quantitative_result=0.0297
seq_text=GGCCGGCAUGGUCCCAGCCUCCUCGCUGGCGCCGGCUGGGCUACAUGCCGAGGGGACCGUCCCCUCGGUAAUGGCGAAUGGGACCCA quantitative_result=0.615
seq_text=GGCCGGCAUGGUCCCAGCCUCCUCUCUGGCGCCGGCUGGGCAACAUUCCGAGAGGACCGUCCCCUCGGUAAUGGCGAAUGGGACCCA quantitative_result=0.19
seq_text=GGCCCGCAUGGUCCCAGCCUACUCGCUGGCGCCGGCUGGGCAACAUUCCGAGGGGACCGUCCCCUCGGUAAUGGCGAAUGGGACCCA quantitative_result=0.0831
seq_text=GGCCGGCAUGGUCCCAACCUCCUCGCUGGCACCGGCUGGGCAACAUUCCGAGGGGACCGUCCCCUCGGUAAUGGCGAAUGGGACCCA quantitative_result=0.234

Ask: Suppose we examine the variant "GGCCGGCAUGGUCCCAGCCUCCUCGCUGGCGCCGGCUGGGCAACAUUCCGAGGGGACCGUCCCCUCGGUAAUGGCGGAUGGUACCCA" ; what self-cleavage value has been reported?
Reply: 0.277

Ask: Suppose we examine the variant "GGCCGGCAUGGUCCCAGCCUCCCCGCUGGCGCCGGCUGGGCAACAUUCCGAGGGGACCGUCCCCUCGGUAAUGGCGAAUGGCACCCA" ; what self-cleavage value has been reported?
Reply: 0.465

Ask: Suppose we examine the variant "GGCCGGCGUGGUCCCAGCCUCCUCGCUGGCGCCGGCUGGGCAACAUUCCGAGGGGACCGUCCCCUCGGUCAUGGCGAAUGGGACCCA" ; what self-cleavage value has been reported?
Reply: 0.519

Ask: Suppose we examine the variant "GGCCGGCAUGGUCCCAGCCUCCUCGCUGGCGCCGGCUGGGCAACAAUCCGAGGGGACCGUCCCCUCGGUAAUGACGAAUGGGACCCA" ; what self-cleavage value has been reported?
Reply: 0.519

Ask: Suppose we examine the variant "GGCCGGCAUGGUCCCAGCCUGCUCGCUGGCGCCGGCUGGGCAACAUUCCGAGGGGACCGUCCCCUCGGUAAUGGUGAAUGGGACCCA" ; what self-cleavage value has been reported?
Reply: 0.0378

Ask: Suppose we examine the variant "GGCCGGCAUGGUCCCAGCCUCCUCGCUGGCGCCGGCUGGGCAACAUUACGAGGGGACCGUCCCCUCGGUAAUGCCGAAUGGGACCCA" ; what self-cleavage value has been reported?
Reply: 0.208

Ask: Suppose we examine the variant "GGCCGGCAUGGUCCCAGCCUCCUCUCUGGCGCUGGCUGGGCAACAUUCCGAGGGGACCGUCCCCUCGGUAAUGGCGAAUGGGACCCA" ; what self-cleavage value has been reported?
Reply: 0.0831

Ask: Suppose we examine the variant "GGCCGGCAUGGUCCCAGCCUCCUCGCUGGCGCCGGCUGGGCAACAUUCCGAGGGGACCGUCCCCUCGGUUAUGUCGAAUGGGACCCA" ; what self-cleavage value has been reported?
Reply: 0.499
